Reference source: patent US11566007B2

Kindly supply the reported IC50 values for the records listed here.
test-system: KRAS G13D (Homo sapiens (Human), UniProt P01116+P62937, G13D)
Sequence (P01116-2 other isoform, or with tags, fused parts or gaps G13D): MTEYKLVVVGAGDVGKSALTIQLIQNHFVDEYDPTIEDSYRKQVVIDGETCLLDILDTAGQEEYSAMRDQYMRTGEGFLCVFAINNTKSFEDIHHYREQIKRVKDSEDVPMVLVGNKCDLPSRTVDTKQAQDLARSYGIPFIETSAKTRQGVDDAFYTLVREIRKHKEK
Sequence (P62937 whole entry): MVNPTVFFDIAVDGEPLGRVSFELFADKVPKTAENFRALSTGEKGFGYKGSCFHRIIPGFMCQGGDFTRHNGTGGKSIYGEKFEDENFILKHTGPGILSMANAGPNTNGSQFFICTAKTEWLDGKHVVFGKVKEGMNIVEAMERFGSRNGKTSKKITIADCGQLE
experimental-details: Ras-Raf (BRAF RBD) disruption / FRET / MOA assay, KRAS G13D
Format: biochemical
condition-set: read-out: IC50* KRAS G13D FRET data

Solved cases below.
compound: CCn1c(-c2cccnc2[C@H](C)OC)c2c3cc(ccc31)-c1nc(cs1)C[C@H](NC(=O)[C@H](C(C)C)N(C)C(=O)[C@H]1CCN(C(=O)C#CC(C)(C)N3CCC3)C1)C(=O)N1CCC[C@H](N1)C(=O)OCC(C)(C)C2 (atropisomer, axis not shown)
IC50: 1 to 10 µM
//
compound: CO[C@@H](C)c1ncccc1-c1c2c3cc(ccc3n1CC(F)(F)F)-c1nnc(o1)C[C@H](NC(=O)[C@H](C(C)C)N(C)C(=O)[C@H]1CCN(C(=O)C#CC(C)(C)N3CCC3)C1)C(=O)N1CCC[C@H](N1)C(=O)OCC(C)(C)C2
IC50: > 10 µM
//
compound: C=CC(=O)N1CC[C@H](C(=O)N(C)[C@H](C(=O)N[C@H]2Cc3cccc(c3)-c3ccc4c(c3)c(c(-c3cc(C5=CCN(C)CC5)cnc3[C@H](C)OC)n4CC)CC(C)(C)COC(=O)[C@@H]3CCCN(N3)C2=O)C(C)C)C1 (atropisomer, axis not shown) [Example A514]
IC50: > 10 µM
//
compound: C=CC(=O)N1CC[C@H](C(=O)N(C)[C@H](C(=O)N[C@H]2Cc3cc(cc(C(F)F)c3)-c3ccc4c(c3)c(c(-c3cccnc3[C@H](C)OC)n4CC)CC(C)(C)COC(=O)[C@@H]3CCCN(N3)C2=O)C(C)C)C1 (atropisomer, axis not shown)
IC50: 1 to 10 µM
//
compound: CO[C@@H](C)c1ncccc1-c1c2c3nc(ccc3n1CC(F)(F)F)-c1cccc(c1)C[C@H](NC(=O)[C@@H](COC1CN(C(=O)C#CC(C)(C)N(C)C)C1)C(C)C)C(=O)N1CCC[C@H](N1)C(=O)OCC(C)(C)C2 (atropisomer, axis not shown)
IC50: > 10 µM
//
compound: C=CC(=O)N1CC[C@H](C(=O)N(C)[C@H](C(=O)N[C@H]2Cc3cc(O)cc(c3)-c3ccc4c(c3)c(c(-c3cncs3)n4CC)CC(C)(C)COC(=O)[C@@H]3CCCN(N3)C2=O)C(C)C)C1
IC50: > 10 µM
//
compound: CCn1c(-c2cccnc2[C@H](C)OC)c2c3cc(ccc31)N1CCC[C@@H](C[C@H](NC(=O)[C@H](C(C)C)N(C)C(=O)[C@H]3CCN(C(=O)C#CC(C)(C)N4CCC4)C3)C(=O)N3CCC[C@H](N3)C(=O)OCC(C)(C)C2)C1 (atropisomer, axis not shown)
IC50: > 10 µM

Could you now consider this next compound?
Record request: IC50 value, item C=CC(=O)N1CCN(C(=O)N(C)[C@H](C(=O)N[C@H]2Cc3nc(cs3)-c3ccc4c(c3)c(c(-c3cccnc3[C@H](C)OC)n4CC(F)(F)F)CC(C)(C)COC(=O)[C@@H]3CCCN(N3)C2=O)C(C)C)CC12CC2 (atropisomer, axis not shown)
0.1 to 1 µM
